// values below are reported SPOT peptide array binding signal intensity
# MEASUREMENT TARGET: SpSla1-D1-D2
# MEASUREMENT PROTOCOL: SPOT peptide array binding signal intensity (averaged, normalized) (arbitrary units (background-subtracted, floor 0; scale differs between SH3 domains)); higher = stronger binding of the SH3 domain to the peptide

Examples from the recorded data:
INSERT INTO measurements (binder, result) VALUES
  ('APKHAPPPVPNETDN', '≤ 0'),
  ('GAGERPRLVPRPINV', 4);

`QLMKNLPKIPLLNDI` has a reported SPOT peptide array binding signal intensity of 20.5

`TKHKAPPPPPPTAET` has a reported SPOT peptide array binding signal intensity of 2

`NILKRRPLKLEAPSK` has a reported SPOT peptide array binding signal intensity of 2

`YRRKSIPFAPHQITA` has a reported SPOT peptide array binding signal intensity of ≤ 0

`EREKALPPIPFTTTL` has a reported SPOT peptide array binding signal intensity of 9

`FTLPPPPPPPGLDEL` has a reported SPOT peptide array binding signal intensity of ≤ 0
